Target: SARS-CoV-2 Mac1 (Severe acute respiratory syndrome coronavirus 2, UniProt P0DTD1)
Test: biochemical
Details: 100 µM; inhibitor
Structures can show the parent of a compound that is named as a salt.
Hi, to clarify the labels: rule met covers %inhibition from 6% upward, rule not met covers anything below 6%.

Inquiry: Say whether CNC[C@H](O)c1ccc(O)c(O)c1 [Epinephrine HCl] shows %inhibition of 6% or more.
Reply text: rule not met

Inquiry: Say whether CCN(C)C(=O)Oc1cccc([C@H](C)N(C)C)c1 [Rivastigmine Tartrate] shows %inhibition of 6% or more.
Reply text: rule not met

Inquiry: Say whether CC(=O)NS(=O)(=O)c1ccc(N)cc1 [Sulfacetamide sodium salt hydrate] shows %inhibition of 6% or more.
Reply text: rule met

Inquiry: Say whether O=C(NC1CCN(CCCCC2(C(=O)NCC(F)(F)F)c3ccccc3-c3ccccc32)CC1)c1ccccc1-c1ccc(C(F)(F)F)cc1 [Lomitapide Mesylate] shows %inhibition of 6% or more.
Reply text: rule met

Inquiry: Say whether Cc1cn(-c2cc(NC(=O)c3ccc(C)c(Nc4nccc(-c5cccnc5)n4)c3)cc(C(F)(F)F)c2)cn1 [Nilotinib (AMN-107)] shows %inhibition of 6% or more.
Reply text: rule met

Inquiry: Say whether CC(=O)[C@@]1(O)CC[C@H]2[C@@H]3C[C@H](C)C4=CC(=O)C=C[C@]4(C)[C@@]3(F)[C@@H](O)C[C@@]21C shows %inhibition of 6% or more.
Reply text: rule not met

Inquiry: Say whether CC(C(=O)O)c1ccc(CC2CCCC2=O)cc1 (centres unmarked) [Loxoprofen Sodium] shows %inhibition of 6% or more.
Reply text: rule not met

Inquiry: Say whether CCN(CC)C(=S)SSC(=S)N(CC)CC shows %inhibition of 6% or more.
Reply text: rule not met
